Numbers sourced from patent US20150252427A1.

For each record, write down the corresponding IC50.
biological target: T1, H-2 K^d molecules purified by affinity chromatography (human, UniProt P61769 21-119; P01902 22-305); assay: radiolabeled peptide inhibition assay, purified H-2 K^d;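 also: competitive binding with labeled probe peptide kept below MHC concentration, so IC50 approximates the dissociation constant KD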
T1 construct: MHC class I molecule, 1-10 nM in the assay, with added human beta-2 microglobulin; also called purified MHC molecules
Don't forget the unit after the number, please.

Check out these entries, answers already filled in.
> print(dat)
                                   binder  quantityname  reading
1         ELQGLLEDER [Ccdc136 WT peptide]          IC50  4.54 µM
2  PYLTQYAIIM (CMS5) [Dhx8.4 Mut peptide]          IC50  6.57 µM

Please find the next binder below.
Entry under test: LYYERIHKKML (Meth A) [Ugdh Mut peptide] . Its IC50 was 0.6 µM
